Origin of the recorded values: the supplement of paper PMC9112550

# Tested on: Escherichia coli TOP10;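 also: peptides expressed intracellularly from a pBAD plasmid library in pooled LB shake-flask culture, induced with 0.3% L-arabinose, DNA abundance read by NGS, three biological replicates, DESeq2 with apeglm shrinkage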
# Protocol Summary: shrunken log2 fold change of peptide-encoding DNA abundance (4.5 h post-induction vs induction); higher = less antimicrobial activity (less host growth inhibition)
# Condition Summary: time post-induction: 4.5 h; library: site-saturation at positions 5, 18, 19, 20
Rule: shrunken log2 fold change under 0.04 gives -1, otherwise 1.

>>> assigned_category("RRIRLRPPRLPRPRPRPRSHPRP")
1
>>> assigned_category("RRIRKRPPRLPRPRPRPLHRPRP")
1
>>> assigned_category("RRIRLRPPRLPRPRPRPVFEPRP")
1
>>> assigned_category("RRIRMRPPRLPRPRPRPTLSPRP")
1
>>> assigned_category("RRIRSRPPRLPRPRPRPLYHPRP")
-1
>>> assigned_category("RRIRRRPPRLPRPRPRPECRPRP")
1
>>> assigned_category("RRIRVRPPRLPRPRPRPDGMPRP")
-1
>>> assigned_category("RRIRGRPPRLPRPRPRPNKFPRP")
-1
>>> assigned_category("RRIRQRPPRLPRPRPRPFTWPRP")
-1
>>> assigned_category("RRIRVRPPRLPRPRPRPDATPRP")
1
>>> assigned_category("RRIRIRPPRLPRPRPRPLMLPRP")
-1
>>> assigned_category("RRIRYRPPRLPRPRPRPSGIPRP")
-1
>>> assigned_category("RRIRERPPRLPRPRPRPWSRPRP")
1
>>> assigned_category("RRIRGRPPRLPRPRPRPMAPPRP")
1
>>> assigned_category("RRIRMRPPRLPRPRPRPRCRPRP")
1
>>> assigned_category("RRIRDRPPRLPRPRPRPKHHPRP")
-1
>>> assigned_category("RRIRIRPPRLPRPRPRPPWPPRP")
1
>>> assigned_category("RRIRMRPPRLPRPRPRPHKDPRP")
-1
>>> assigned_category("RRIRTRPPRLPRPRPRPPVDPRP")
1
>>> assigned_category("RRIRLRPPRLPRPRPRPWAPPRP")
1
>>> assigned_category("RRIRFRPPRLPRPRPRPMEEPRP")
1
>>> assigned_category("RRIRYRPPRLPRPRPRPQKHPRP")
-1
>>> assigned_category("RRIRARPPRLPRPRPRPQCQPRP")
1
>>> assigned_category("RRIRNRPPRLPRPRPRPRASPRP")
1
>>> assigned_category("RRIRPRPPRLPRPRPRPDERPRP")
-1
>>> assigned_category("RRIRGRPPRLPRPRPRPGHPPRP")
1
>>> assigned_category("RRIRCRPPRLPRPRPRPGEIPRP")
1
>>> assigned_category("RRIRERPPRLPRPRPRPGFKPRP")
-1
>>> assigned_category("RRIRTRPPRLPRPRPRPWPVPRP")
-1
>>> assigned_category("RRIRFRPPRLPRPRPRPATFPRP")
-1
>>> assigned_category("RRIRTRPPRLPRPRPRPWGTPRP")
-1
>>> assigned_category("RRIRMRPPRLPRPRPRPLCWPRP")
1
>>> assigned_category("RRIRERPPRLPRPRPRPRIHPRP")
-1
>>> assigned_category("RRIRDRPPRLPRPRPRPDFTPRP")
-1
>>> assigned_category("RRIRARPPRLPRPRPRPYWDPRP")
-1
>>> assigned_category("RRIRARPPRLPRPRPRPWPQPRP")
1
>>> assigned_category("RRIRFRPPRLPRPRPRPWNSPRP")
-1
>>> assigned_category("RRIRTRPPRLPRPRPRPGSLPRP")
-1
>>> assigned_category("RRIRIRPPRLPRPRPRPVTPPRP")
-1
>>> assigned_category("RRIRYRPPRLPRPRPRPAFVPRP")
-1
>>> assigned_category("RRIRTRPPRLPRPRPRPVTLPRP")
-1
>>> assigned_category("RRIRHRPPRLPRPRPRPMDPPRP")
-1
>>> assigned_category("RRIRHRPPRLPRPRPRPAYGPRP")
-1
>>> assigned_category("RRIRERPPRLPRPRPRPCYYPRP")
-1
>>> assigned_category("RRIRIRPPRLPRPRPRPMLVPRP")
1
>>> assigned_category("RRIRARPPRLPRPRPRPNPFPRP")
-1
>>> assigned_category("RRIRKRPPRLPRPRPRPQRTPRP")
1
>>> assigned_category("RRIRDRPPRLPRPRPRPGCRPRP")
1
>>> assigned_category("RRIRCRPPRLPRPRPRPQWIPRP")
-1
>>> assigned_category("RRIRLRPPRLPRPRPRPSAQPRP")
1
>>> assigned_category("RRIRQRPPRLPRPRPRPKPDPRP")
1
>>> assigned_category("RRIRERPPRLPRPRPRPKQIPRP")
1
>>> assigned_category("RRIRSRPPRLPRPRPRPIWYPRP")
-1
>>> assigned_category("RRIRNRPPRLPRPRPRPTHDPRP")
-1
>>> assigned_category("RRIRVRPPRLPRPRPRPGANPRP")
1
>>> assigned_category("RRIRVRPPRLPRPRPRPLDAPRP")
1
>>> assigned_category("RRIRSRPPRLPRPRPRPDMCPRP")
1
>>> assigned_category("RRIRDRPPRLPRPRPRPMHIPRP")
-1
>>> assigned_category("RRIRGRPPRLPRPRPRPRNKPRP")
1
>>> assigned_category("RRIRRRPPRLPRPRPRPAEKPRP")
1
>>> assigned_category("RRIRERPPRLPRPRPRPNGKPRP")
-1
>>> assigned_category("RRIRCRPPRLPRPRPRPWDNPRP")
-1
>>> assigned_category("RRIRNRPPRLPRPRPRPQVMPRP")
1
